- TEST_TARGET: MYC (Homo sapiens)
- Construct: A His-tagged bHLH construct was immobilized on a chip for site-specific functionalization
- Sequence (P01106 369-421 limits assumed): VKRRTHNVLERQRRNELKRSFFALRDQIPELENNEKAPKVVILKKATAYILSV
- PROCEDURE_SUMMARY: MYC affinity assessment by Bio-FET concentration curve
- COND: concentration for ½ Rmax, averaged across three chips
ASSAY_METRIC: Kd (nM)

* NC(=O)c1ccc(-c2cc(-c3ccc(-c4nccs4)cc3)nc(-c3ccco3)c2)cc1 [Compound 5g] | 12.5
